meta.source: patent US20120258108A1

# Target System: Recombinant Human DLL4 (human, UniProt Q9NR61 27-524)
# Sequence (Q9NR61 27-524 limits assumed): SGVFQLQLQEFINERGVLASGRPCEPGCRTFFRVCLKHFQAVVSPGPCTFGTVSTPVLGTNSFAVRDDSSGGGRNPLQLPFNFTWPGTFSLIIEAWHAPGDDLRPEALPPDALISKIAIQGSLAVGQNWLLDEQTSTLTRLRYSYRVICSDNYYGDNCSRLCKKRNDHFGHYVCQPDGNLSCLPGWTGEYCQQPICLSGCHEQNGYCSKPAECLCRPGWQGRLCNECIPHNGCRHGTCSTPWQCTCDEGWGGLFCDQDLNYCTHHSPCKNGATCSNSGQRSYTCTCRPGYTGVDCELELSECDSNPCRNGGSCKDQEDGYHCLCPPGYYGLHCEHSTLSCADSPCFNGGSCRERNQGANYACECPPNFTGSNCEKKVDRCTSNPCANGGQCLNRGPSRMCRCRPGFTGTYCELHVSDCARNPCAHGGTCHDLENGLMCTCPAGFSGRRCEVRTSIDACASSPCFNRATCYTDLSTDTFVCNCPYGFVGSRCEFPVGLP
# Assay Details: SPR (BIACORE)
pKd overview
The meaning of pKd here: minus log10 of the concentration in molar units.

The cases that follow already have their pKd on record.
AB290 (antibody, human IgG1, kappa, V domains shown, CDR-grafted parent antibody) VH: EVTLRESGPALVKPTQTLTLTCTASGFTFSNFPMAWVRQPPGKGLEWVATISSSDGTTYYRDSVKGRFTISRDNSKNQLVLTMTNMDPVDTATYYCARGYYNSPFAYWGQGTTVTVSS VL: DIVMTQSPDSLAVSLGERATINCRASEDIYSNLAWYQQKPGQAPKLLIYDTNNLADGVPDRFSGSGSGTDFTLTISSLQAEDVAVYYCQQYNNYPPTFGGGTKVEIKR : 7.70
AB299 (antibody, human IgG1, kappa, V domains shown, CDR-grafted parent antibody) VH: EVQLVESGGGLVQPGGSLRLSCAASGFTFSNFPMAWVRQAPGKGLEWVATISSSDGTTYYRDSVKGRFTISRDNSKNTLYLQMNSLRAEDTAVYYCARGYYNSPFAYWGQGTLVTVSS VL: DIQMTQSPSSLSASVGDRVTITCRASEDIYSNLAWYQQKPGKAPKLLIYDTNNLADGVPSRFSGSGSGTDFTLTISSLQPEDFATYYCQQYNNYPPTFGQGTKVEIKR : 7.62

Would you kindly look at the next entry?
Value lookup for pKd; key = AB287 (antibody, human IgG1, kappa, V domains shown, CDR-grafted parent antibody) VH: EVTLRESGPALVKPTQTLTLTCTVSGGSISSSSYYWGWIRQPPGKGLEWIGDIYYTGSTYYNPSLKSRVTISVDTSKNQFVLTMTNMDPVDTATYYCARQALAMGGGSDKWGQGTTVTVSS VL: DYVLTQSPDSLAVSLGERATINCSGQRLGDKYASWYQQKPGQSPKLVIYEDSKRPSGIPDRFSGSNSGDDATLTISSLQAEDVAVYYCQAWDRDTGVFGGGTKVEIKR
8.82
